SYSTEM TESTED: T1, Human CD137 ECD (human)
T1 construct: also called human CD137 extracellular domain; hCD137
T1 sequence (chain, as listed by the source limits assumed): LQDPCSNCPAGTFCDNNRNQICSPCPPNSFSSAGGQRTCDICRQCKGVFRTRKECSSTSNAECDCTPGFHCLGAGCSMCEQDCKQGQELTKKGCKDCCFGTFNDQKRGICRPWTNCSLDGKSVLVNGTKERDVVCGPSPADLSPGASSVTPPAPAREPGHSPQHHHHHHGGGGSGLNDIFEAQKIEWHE
PROTOCOL SUMMARY: SPR (Biacore), affinity of single-mutation variant against parental H183/L072
Please respond with reported fold change of affinity for CD137 for every item in the list.
Entry rule: numbers only, all in fold.

input: Return reported fold change of affinity for CD137; argument: Dual-Fab H183/L072 variant with single light chain mutation R54Y (Kabat) (antibody, name in Kabat numbering, V domains shown, expressed as an antibody in Expi293 and purified on Protein A; also called dBBDu183H / dBBDu072L R54Y) VH: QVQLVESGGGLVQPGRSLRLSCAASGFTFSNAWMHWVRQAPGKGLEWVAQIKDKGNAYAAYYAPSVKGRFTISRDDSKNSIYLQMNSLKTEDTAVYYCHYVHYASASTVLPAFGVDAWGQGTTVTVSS VL: DIVMTQSPLSLPVTPGEPASISCQASQELVHMNRNTYLHWYQQKPGQAPRLLIYKVSNYFPGVPDRFSGSGSGTDFTLKISRVEAEDVGVYYCAQGTSVPFTFGQGTKLEIK
output: 0.2

input: Field request: fold change of affinity for CD137 | item: Dual-Fab H183/L072 variant with single light chain mutation G91Y (Kabat) (antibody, name in Kabat numbering, V domains shown, expressed as an antibody in Expi293 and purified on Protein A; also called dBBDu183H / dBBDu072L G91Y) VH: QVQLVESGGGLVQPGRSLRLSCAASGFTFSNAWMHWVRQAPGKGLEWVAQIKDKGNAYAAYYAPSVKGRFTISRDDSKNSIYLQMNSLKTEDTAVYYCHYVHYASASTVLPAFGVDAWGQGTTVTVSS VL: DIVMTQSPLSLPVTPGEPASISCQASQELVHMNRNTYLHWYQQKPGQAPRLLIYKVSNRFPGVPDRFSGSGSGTDFTLKISRVEAEDVGVYYCAQYTSVPFTFGQGTKLEIK
output: 0

input: Recorded fold change of affinity for CD137 of Dual-Fab H183/L072 variant with single light chain mutation P95Y (Kabat) (antibody, name in Kabat numbering, V domains shown, expressed as an antibody in Expi293 and purified on Protein A; also called dBBDu183H / dBBDu072L P95Y) VH: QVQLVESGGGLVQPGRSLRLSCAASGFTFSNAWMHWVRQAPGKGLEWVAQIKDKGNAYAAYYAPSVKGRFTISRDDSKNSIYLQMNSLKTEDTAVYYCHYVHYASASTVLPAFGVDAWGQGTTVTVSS VL: DIVMTQSPLSLPVTPGEPASISCQASQELVHMNRNTYLHWYQQKPGQAPRLLIYKVSNRFPGVPDRFSGSGSGTDFTLKISRVEAEDVGVYYCAQGTSVYFTFGQGTKLEIK , please.
output: 0
